target: Neuropeptide Y receptor type 5 (Homo sapiens); assay: Inhibition of binding of radioligand [125I]PYY to the human Neuropeptide Y receptor type 5, using a stably transfected HEK293 cell line
pIC50: −log10 of the molar value.
measureName: pIC50

Would you please look over these solved cases?
CC(C)(C)OC(=O)NC1CCN(CC(=O)NC2CCc3cc(F)ccc3C2Cc2cccnc2)C1 (stereo not given): 7.35
O=C(NC[C@H]1CC[C@H](C(=O)NC2CCc3cc(F)ccc3C2Cc2cccnc2)CC1)c1ccccc1 (stereo not given in full): 7.41
CC(C)(C)OC(=O)NC[C@H]1CC[C@H](C(=O)NC2CCc3cc(F)ccc3C2Cc2cccnc2)CC1 (stereo not given in full): 7.80
O=C(CN1CCC(n2c(O)nc3ccccc32)CC1)NC1CCc2cc(O)ccc2C1Cc1cccnc1 (stereo not given): 8.22
O=C(CN1CCC(NC(=O)Nc2ccccc2)CC1)NC1CCc2cc(F)ccc2C1Cc1cccnc1 (stereo not given): 6.63

1 = CC(C)(C)OC(=O)N[C@@H]1CCN(CC(=O)NC2CCc3cc(F)ccc3C2Cc2cccnc2)C1 (stereo not given in full)
2 = CC(C)(C)NC(=O)NC1CCN(CC(=O)NC2CCc3cc(F)ccc3C2Cc2cccnc2)CC1 (stereo not given)
Request: Returns the identifier with the smallest measured pIC50 among 1 and 2 . Return value: the label identifying the chosen record.
Response: 2
(2: 6.85, 1: 7.52)

a = O=C(CN1CCC(n2c(=O)[nH]c3ccccc32)CC1)NC1CCc2ccccc2C1Cc1cccnc1 (stereo not given)
b = CC(C)(C)OC(=O)NC1CCN(CC(=O)NC2CCc3cc(F)ccc3C2Cc2cccnc2)CC1 (stereo not given)
Request: // max by pIC50 over [ a , b ] Return value: the label identifying the chosen record.
Response: a

1 = O=C(CN1CC[C@H](NC(=O)c2ccccc2)C1)NC1CCc2cc(F)ccc2C1Cc1cccnc1 (stereo not given in full)
2 = O=C(NC[C@H]1CC[C@H](C(=O)NC2CCc3cc(F)ccc3C2Cc2cccnc2)CC1)Nc1ccccc1 (stereo not given in full)
Request: // max by pIC50 over [ 1 , 2 ] Return value: the label identifying the chosen record.
Response: 1

====

Target: UniProt:Q15761
Sequence (Q15761 whole entry): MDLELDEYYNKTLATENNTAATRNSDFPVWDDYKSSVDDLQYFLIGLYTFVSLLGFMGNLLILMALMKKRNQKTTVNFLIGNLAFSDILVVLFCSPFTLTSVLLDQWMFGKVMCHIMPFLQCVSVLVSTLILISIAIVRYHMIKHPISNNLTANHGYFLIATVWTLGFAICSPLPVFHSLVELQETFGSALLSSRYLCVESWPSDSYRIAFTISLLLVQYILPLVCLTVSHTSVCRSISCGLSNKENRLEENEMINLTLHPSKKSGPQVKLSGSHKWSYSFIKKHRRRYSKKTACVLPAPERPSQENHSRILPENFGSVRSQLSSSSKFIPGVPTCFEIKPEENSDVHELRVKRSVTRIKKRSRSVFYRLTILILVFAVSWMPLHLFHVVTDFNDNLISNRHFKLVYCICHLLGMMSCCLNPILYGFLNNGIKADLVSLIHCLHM
Test: Inhibition of binding of radioligand [125I]PYY to the human Neuropeptide Y receptor type 5, using a stably transfected HEK293 cell line
measureName: IC50 (nM)

O=C(Cc1ccccc1)NC1CCN(CC(=O)NC2CCc3cc(F)ccc3C2Cc2cccnc2)CC1 (centres undefined): 36
O=C(CN1CCC(NC(=O)c2ccccc2)CC1)NC1CCc2cc(F)ccc2C1Cc1cccnc1 (centres undefined): 28
O=C(CN1CCC(NC(=O)Oc2ccccc2)CC1)NC1CCc2cc(F)ccc2C1Cc1cccnc1 (centres undefined): 52
O=C(NC[C@H]1CC[C@H](C(=O)NC2CCc3cc(F)ccc3C2Cc2cccnc2)CC1)Oc1ccccc1 (some centres undefined): 31
